# MEASURED ON: RSV A2 pre-F (RSV A2)
# METHOD DESCRIPTION: BLI
Record form. Attribute: pKd. Fill in for each entry.
Numbers only, as −log10 of the molar value.

Please review the following examples before continuing.
F6-38 (antibody, V domains shown) VH: QVQLEESGGGVVQPGRSLTLSCAASGFTLKNYAIHWVRQAPGKGLEWVAVTAYDGFTSYYADSVKSRITISRDNSKNTAYLHLNNVRDDDAAFYYCARGGEGAFSWLGYLQYMDVWGRGTTVAVSS VL: QSTLTQPASASGSPGQSITISCTGTSNDIGSYTYVSWYQHHPGKAPKLMIYDVNERPSGISHRFSGSKSGNTASLTISGLQPEDEADYYCNSYTINNTLKFGGGTRLTVL    8.86
F6-27 (antibody, V domains shown) VH: QEQLMESGGDVVRPGTSLTLSCKASGFAFRSHALHWVRQAPGKGLEWVSVISYDGGHTNSADSLEGRFTVSRDNSKNILYLQMNSLRTEDTAVYFCARSEGSYRSWPGYFYYMDVWGNGTTVTVSS VL: QSALTQPASVSGSPGQSITISCIGTSSDVGGYYYVSWYQQHPGRAPKLIIFDVTDRPSGVSSRFSGSQSGNTASLTISGLQPEDEADYYCNSYSSSTIPYVFGSGTKVTVL    9.17
MEDI8897 (antibody, V domains shown) VH: QVQLVQSGAEVKKPGSSVMVSCQASGGLLEDYIINWVRQAPGQGPEWMGGIIPVLGTVHYGPKFQGRVTITADESTDTAYMELSSLRSEDTAMYYCATETALVVSETYLPHYFDNWGQGTLVTVSS VL: DIQMTQSPSSLSAAVGDRVTITCQASQDIVNYLNWYQQKPGKAPKLLIYVASNLETGVPSRFSGSGSGTDFSLTISSLQPEDVATYYCQQYDNLPLTFGGGTKVEIKR    9.91
F6-47 (antibody, V domains shown) VH: QVQLLESGGNVVQPGRSLSLSCVASGFALKSYAVHWVRQAPGKGLEWVAFVPYDAVTNYYADSVKGRFTVSRDISKNTVNLHMNRLMGEDTAVYFCARGATSGSYSFLGYNYYMDVWGRGTAVTVSS VL: QSALTQPASVSGSPGQPITISCTGTSSDVGAYTYVSWYQHHPGKAPKLILFDVTDRPSGVSHRFSGSKSGNTASLTISGLQSEDEAEYYCSSYTDRNTIVFGGGTTLTVL    9.46

Now look at this entry.
Look up and report measured pKd for this entry: F6-56 (antibody, V domains shown) VH: QVQLVESGGDVVRPGTSLRLSCAASGFAFRSHALHWVRQAPGKGLEWVSVISYDGGHTNSADSVKGRFTVSRDNSKNILFLQMNSLRIEDTAVYFCARSEGSYRSWPGYFYYMDVWGNGTTVTVSS VL: QSALTQPASVSGSPGQSITISCIGTSSDVGGYYYVSWYQQHPGKAPKLIIFDVSDRPSGVSSRFSGSQSGNTASLTISGLQAEDEADYYCNSYSSSTTPYVFGSGTKVTVL 9.42
